Test: chemical genetic growth profiling, strain panel (AID 1159580);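 also: tested at 20 µM; growth read once vehicle control cultures reached saturation at 30 °C; 1 = growth at the plate median or of vehicle wells; lower values mean less growth of the strain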
Conditions: S. cerevisiae deletion strains, growth OD, locus YHR129C, strain ARP1
Screen size: about 5,500 compounds; about 2,000 (36%) were called active. About 18% were inconclusive and are not listed. Rule as the data show it: active = normalized growth mostly below about 0.91 (no sharp cut-off); inconclusive = no clear call, values can overlap the other calls; inactive = mostly above about 0.92. This is one part of the list.
Select the matching outcome among active, inactive

Ask | Hey, what did the test say about CCCC(C)C1(CC)C(=O)N=C(S)NC1=O (configuration not stated) ?
Reply | inactive

Ask | What about `O=[N+]([O-])c1ccc(O)c([N+](=O)[O-])c1` ?
Reply | active

Ask | What about `C[n+]1cccc(C(=O)[O-])c1` ?
Reply | inactive

Ask | What about CCCC(C)C1(CC)C(=O)NC(=O)NC1=O (configuration not stated) ?
Reply | inactive

Ask | What about `CC(=O)Nc1cc([As](=O)(O)O)ccc1O` ?
Reply | inactive

Ask | What about C=CCC1(C(C)CCC)C(=O)N=C(S)NC1=O (configuration not stated) ?
Reply | inactive

Ask | What about NC(=NCCC[C@H](N)C(=O)O)NC(CCC(=O)O)C(=O)O (some centres not stated) ?
Reply | inactive

====

I'd appreciate it if you could supply normalized growth values for the items below.
Experiment: chemical genetic growth profiling, strain panel (AID 1159580)
Conditions: S. cerevisiae deletion strains, growth OD, locus YIL073C, strain SPO22, hits give low values
Out of some 5,500 compounds screened, about 2,000 (36%) were called active. About 18% were inconclusive and are not listed. This is one part of the list.

Ask | # query: normalized growth of entry CC(C)NCC(O)c1ccc2ccccc2c1 (stereo not drawn)
Reply | 1.01 (inactive)

Ask | What about `Nc1nc2ncc(C(=O)O)nc2c(=O)[nH]1` ?
Reply | 1.1 (inactive)

Ask | What about `C=C(C)[C@H]1CC=C(C(=O)O)CC1` ?
Reply | 0.978 (inactive)

Ask | What about CC(C)(C)NCC(O)c1ccccc1Cl (stereo not drawn) ?
Reply | 0.972 (inactive)

Ask | What about `Cc1ccsc1/C=C/C1=NCCCN1C` ?
Reply | 0.91 (inactive)

Ask | What about `C[n+]1cccc(C(=O)[O-])c1` ?
Reply | 1.02 (inactive)

Ask | What about CC1(C)C(O)CC(O)C2(C)C1CC(=O)C1(C)C2CCC2(C)C(C(=O)O)OC(=O)C3OC321 (stereo not drawn) ?
Reply | 1.03 (inactive)

Ask | What about `CC(=O)NCCCCCC(=O)O` ?
Reply | 0.979 (inactive)

====

Assay: chemical genetic growth profiling, strain panel (AID 1159580);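 also: tested at 20 µM; growth read once vehicle control cultures reached saturation at 30 °C; 1 = growth at the plate median or of vehicle wells; lower values mean less growth of the strain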
Conditions: S. cerevisiae deletion strains, growth OD, locus YLR039C, strain RIC1
The campaign covered roughly 5,500 compounds. About 2,000 (36%) were called active. Roughly 18% stayed inconclusive and do not appear here. Rule as the data show it: active = normalized growth mostly below about 0.91 (no sharp cut-off); inconclusive = no clear call, values can overlap the other calls; inactive = mostly above about 0.92. The list shows a part of the results.
Select the matching outcome among label 1 = active, label 0 = inactive

Ask | Hey, what did the test say about CC(=O)O[C@@H]1CC2C(C)(C)C(=O)CC[C@]2(C)C2CC[C@]3(C)C(=CC(=O)O[C@H]3c3ccoc3)[C@@]21C (some centres undefined) ?
Reply | label 0

Ask | What about CC(=O)c1c(O)c(C)c(O)c2c1OC1=CC(=O)C(C(C)=O)C(=O)C12C (centres undefined) ?
Reply | label 0

Ask | What about `C/C=C/c1ccc2c(c1)OCO2` ?
Reply | label 0

Ask | What about `O=C(CCCCCCCCCCCCC1CCCC1)Nc1ccc(S(=O)(=O)c2ccc(NC(=O)CCCCCCCCCCCCC3CCCC3)cc2)cc1` ?
Reply | label 0

Ask | What about `CCCc1occc(=O)c1/C=C/O` ?
Reply | label 0

Ask | What about `O=C(Nc1ccccc1F)C(Cl)Cl` ?
Reply | label 0

Ask | What about `CN1CCN(C=Nc2ncc(C(F)(F)F)cc2Cl)CC1` ?
Reply | label 0

Ask | What about `Oc1c(Cl)cc(Cl)c2cccnc12` ?
Reply | label 1

Ask | What about `Clc1cc(Cl)c(Cl)c(-n2cccc2)c1Cl` ?
Reply | label 1

Ask | What about `CC1CCN(C(=O)CC#N)CC1` ?
Reply | label 0

Ask | What about `O[N+]1=CC=CCC1=S.On1ccccc1=S.[Zn]` ?
Reply | label 1

Ask | What about C=CC(C)(O)CC/C=C(\C)CCC=C(C)C (centres undefined) ?
Reply | label 0

Ask | What about CC1(C)C(=O)C=C[C@@]2(C)C1=C(O)C(=O)[C@]1(C)C2CC[C@@]2(C)[C@H](c3ccoc3)C[C@H]3O[C@]321 (some centres undefined) ?
Reply | label 1

Ask | What about CC(=O)O[C@@H]1C[C@@]2(C)[C@H](c3ccoc3)C[C@H]3O[C@]32[C@]2(C)C(=O)C(O)=C3C(C)(C)C(=O)C=C[C@]3(C)C12 (some centres undefined) ?
Reply | label 1

Ask | What about `Clc1cc(Cl)cc(-n2cccc2)c1` ?
Reply | label 0

Ask | What about `Cc1occc(=O)c1/C=C/O` ?
Reply | label 0

Ask | What about `CCOc1ccc(/C=C(\C)[N+](=O)[O-])cc1OC` ?
Reply | label 1

Ask | What about `Nc1ccccc1SCC(=O)Nc1c(F)cccc1F` ?
Reply | label 1

Ask | What about `CSc1c(C#N)c(-c2cccs2)nn1C` ?
Reply | label 0

Ask | What about `Cc1occc(=O)c1O` ?
Reply | label 0

Ask | What about `CC(=O)N/C(=C/c1ccc2c(c1)OCO2)C(=O)O` ?
Reply | label 0

Ask | What about `Oc1ccc(Cl)c2cccnc12` ?
Reply | label 1

Ask | What about CC(=O)OC1CC(OC(C)=O)C2(C)C(CC(OC(C)=O)C3(C)C2CCC2(C)C(c4ccoc4)CC4OC423)C1(C)C (centres undefined) ?
Reply | label 0

Ask | What about `COc1ccc(NS(=O)(=O)c2c(C)noc2C)cc1` ?
Reply | label 0

====

Experiment: chemical genetic growth profiling, strain panel (AID 1159580);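 also: tested at 20 µM; growth read once vehicle control cultures reached saturation at 30 °C; 1 = growth at the plate median or of vehicle wells; lower values mean less growth of the strain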
Settings: S. cerevisiae deletion strains, growth OD, locus YER015W, strain faa2
In all, about 5,500 compounds went through this assay and about 2,000 (36%) were called active. Inconclusive results (about 18%) are left out. Rule as the data show it: active = normalized growth mostly below about 0.91 (no sharp cut-off); inconclusive = no clear call, values can overlap the other calls; inactive = mostly above about 0.92. This is one part of the list.
Select the matching outcome among 1.0 for active, 0.0 for inactive

Ask | Hey, what did the test say about O=C(O)CCCCC1CCSS1 (stereo not drawn) ?
Reply | 0.0

Ask | What about CCC(Cc1c(I)cc(I)c(N)c1I)C(=O)O (stereo not drawn) ?
Reply | 0.0

Ask | What about CC1(C)CCCC2(C)C3C1[C@@H](O)C2(C)C[C@H]3O (stereo partly drawn) ?
Reply | 0.0

Ask | What about O=C1CCCC2C3CC(CN12)[C@@H]1CCCCN1C3 (stereo partly drawn) ?
Reply | 0.0

Ask | What about `Oc1ccc(Cl)c2cccnc12` ?
Reply | 1.0

Ask | What about `Oc1c(Br)cc(Br)c2cccnc12` ?
Reply | 1.0

Ask | What about `Cc1ccc2c(Cl)cc(Cl)c(O)c2n1` ?
Reply | 0.0

Ask | What about `OC[C@@H](O)[C@@H](O[C@@H]1O[C@H](CO)[C@@H](O)[C@H](O)[C@H]1O)[C@H](O)[C@@H](O)CO` ?
Reply | 0.0

Ask | What about CC(C)NCC(O)c1ccc2ccccc2c1 (stereo not drawn) ?
Reply | 0.0

Ask | What about CCCC1O[C@@H]2CC3C4CCC5=CC(=O)C=CC5(C)C4[C@@H](O)CC3(C)[C@]2(C(=O)CO)O1 (stereo partly drawn) ?
Reply | 0.0

Ask | What about C1CCN2CC3CC(CN4CCCCC34)C2C1 (stereo not drawn) ?
Reply | 0.0

Ask | What about `CC(=O)Oc1ccc(Cl)c2cccnc12` ?
Reply | 1.0

Ask | What about `Nc1ccc(S(=O)(=O)Nc2ccccn2)cc1` ?
Reply | 0.0

====

Experiment: chemical genetic growth profiling, strain panel (AID 1159580);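 also: tested at 20 µM; growth read once vehicle control cultures reached saturation at 30 °C; 1 = growth at the plate median or of vehicle wells; lower values mean less growth of the strain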
Conditions: S. cerevisiae deletion strains, growth OD, locus YLL001W, strain dnm1, hits give low values
Screen size: about 5,500 compounds; about 2,000 (36%) were called active. Inconclusive results (about 18%) are left out. This is one part of the list.
I'd appreciate it if you could supply normalized growth values for the items below.
Give only the figure.

Ask | # query: normalized growth of entry CCCC(C)C1(CC)C(=O)N=C(S)NC1=O (stereo unspecified)
Reply | 0.986

Ask | What about `CC(=O)NCCCCCC(=O)O` ?
Reply | 1.01

Ask | What about CCCC(C)C1(CC)C(=O)NC(=O)NC1=O (stereo unspecified) ?
Reply | 0.994

Ask | What about `O=C(O[C@@H]1Cc2c(O)cc(O)cc2O[C@@H]1c1cc(O)c(O)c(O)c1-c1c([C@H]2Oc3cc(O)cc(O)c3C[C@H]2O)cc(O)c(O)c1O)c1cc(O)c(O)c(O)c1` ?
Reply | 0.986

Ask | What about `CC(=O)Nc1cc([As](=O)(O)O)ccc1O` ?
Reply | 0.99

Ask | What about `CCN(CC)CCNC(=O)c1cc(S(C)(=O)=O)ccc1OC` ?
Reply | 0.94

Ask | What about `O=[N+]([O-])c1ccc(O)c([N+](=O)[O-])c1` ?
Reply | 0.793

Ask | What about `CCCCC1=NC2(CCCC2)C(=O)N1Cc1ccc(-c2ccccc2-c2nn[nH]n2)cc1` ?
Reply | 1.01

Ask | What about `O=C(O)CF` ?
Reply | 1.02

Ask | What about `O=[N+]([O-])c1cc([As](=O)(O)O)ccc1O` ?
Reply | 0.936

Ask | What about `O=C(O)c1ccccc1Nc1cccc(C(F)(F)F)c1` ?
Reply | 0.833
